Entry source: patent US12649723B2

Molecular target: tau protein (Homo sapiens, UniProt P10636)
Construct: fused on or other part: Split fluorescent-protein halves for BiFC are fused to tau; In the published tau-BiFC line these are Venus VN173 and VC155
Sequence (P10636 2-441 isoform P10636-8 limits assumed): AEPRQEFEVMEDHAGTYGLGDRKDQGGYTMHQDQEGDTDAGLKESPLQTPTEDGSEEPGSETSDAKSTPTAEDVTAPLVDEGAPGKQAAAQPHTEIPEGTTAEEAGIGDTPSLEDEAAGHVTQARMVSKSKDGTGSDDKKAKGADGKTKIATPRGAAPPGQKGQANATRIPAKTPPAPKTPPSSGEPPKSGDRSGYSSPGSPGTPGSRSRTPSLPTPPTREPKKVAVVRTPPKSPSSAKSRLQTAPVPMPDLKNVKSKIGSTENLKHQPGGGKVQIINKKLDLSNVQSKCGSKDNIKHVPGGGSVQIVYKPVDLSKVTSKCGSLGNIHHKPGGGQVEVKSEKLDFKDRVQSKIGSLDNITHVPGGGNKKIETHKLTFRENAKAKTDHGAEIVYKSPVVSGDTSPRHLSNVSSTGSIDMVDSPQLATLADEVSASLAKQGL
Experiment: Tau-BiFC cell model: inhibition of tau protein aggregation
Format: cell-based
Settings: 48 h; compounds marked *: measured at 3 μM; Forskolin-only group = 100% tau protein-aggregated state; read-out: Response
remaining activity at 3 µM reference

compound | quantityUnit | remaining activity at 3 µM
Cc1cc(NN=C(C#N)C#N)ccc1OCc1cccnn1 [Compound 149] | % | -8
Cc1cc(NN=C(C#N)C#N)ccc1OCc1ccc(C(F)(F)F)cc1 [Compound 148] | % | 22
COc1cc(NN=C(C#N)C#N)ccc1OCc1ccc(C)cc1 [Compound 154] | % | -52
Cc1cnc(COc2ccc(NN=C(C#N)C#N)cc2)cn1 [Compound 138] | % | 15
Cc1cc(NN=C(C#N)C#N)ccc1OCc1nc2ccccc2o1 [Compound 156] | % | -29
Cc1ccc(COc2ccc(NN=C(C#N)C#N)cc2C)cc1 [Compound 142] | % | -5
COc1cc(NN=C(C#N)C#N)ccc1OCc1cccnc1 [Compound 160] | % | -33
COc1cc(NN=C(C#N)C#N)ccc1OCc1cccnn1 [Compound 164] | % | -1
Cc1cc(NN=C(C#N)C#N)ccc1OCc1ncccn1 [Compound 143] | % | 11
COc1cc(NN=C(C#N)C#N)ccc1OCc1cnc(C)cn1 [Compound 162] | % | -25

---

Test: Liver microsome stability
Assay type: in vitro ADME, dog
Settings: amount of substrate remaining; compound 1 μM, 30 minutes, 37° C., NADPH
The entries below are paired with their reported Dog (%).

molecularString | valueComparator | Dog (%)
N#CC(C#N)=NNc1ccc(Oc2cccc(F)c2)nc1 | = | 94.8
Cc1cccc(C(=O)Nc2ccc(NN=C(C#N)C#N)cn2)c1F | > | 100
Cc1cnc(NC(=O)c2ccc(NN=C(C#N)C#N)cc2)cn1 | > | 100
N#CC(C#N)=NNc1ccc(NC(=O)c2ccc(F)cc2)nc1 | = | 59.5
Cc1cnc(C(=O)Nc2ccc(NN=C(C#N)C#N)cn2)cn1 | = | 66.9

---

log10 of IC50 overview
Molecular target: tau protein (Homo sapiens, UniProt P10636)
Construct: fused on or other part: Split fluorescent-protein halves for BiFC are fused to tau; In the published tau-BiFC line these are Venus VN173 and VC155
Experiment: Tau-BiFC cell model: inhibition of tau protein aggregation
Settings: Tau BiFC in cells; with Forskolin 30 μM, 48 hours
attributeMeasured: log10 of IC50 (log10 of the value in µM)

molecularString | target | log10 of IC50
Cc1cnc(C(=O)Nc2ccc(NN=C(C#N)C#N)cn2)cn1 | tau protein (Homo sapiens, UniProt P10636) | -0.40
N#CC(C#N)=NNc1ccc(Oc2ccccc2)cn1 | tau protein (Homo sapiens, UniProt P10636) | -0.51
N#CC(C#N)=NNc1ccc(Oc2ccccc2C#N)cc1 | tau protein (Homo sapiens, UniProt P10636) | 0.33
N#CC(C#N)=NNc1ccc(Oc2cccc(F)c2)nc1 | tau protein (Homo sapiens, UniProt P10636) | -0.59
N#CC(C#N)=NNc1ccc(Oc2cccc(F)c2)cc1 | tau protein (Homo sapiens, UniProt P10636) | 0.11
Cc1cc(NN=C(C#N)C#N)ccc1OCc1cnccn1 | tau protein (Homo sapiens, UniProt P10636) | 0.11
N#CC(C#N)=NNc1ccc(OCCc2ccccc2)nc1 | tau protein (Homo sapiens, UniProt P10636) | -0.11
Cc1cncc(NC(=O)c2ccc(NN=C(C#N)C#N)cc2)n1 | tau protein (Homo sapiens, UniProt P10636) | -0.07
N#CC(C#N)=NNc1ccc(OCc2ccc(C(F)(F)F)cc2)nc1 | tau protein (Homo sapiens, UniProt P10636) | -0.40
N#CC(C#N)=NNc1ccc(Oc2ccccn2)cc1 | tau protein (Homo sapiens, UniProt P10636) | 0.06
COc1cc(NN=C(C#N)C#N)ccc1OCc1cccnn1 | tau protein (Homo sapiens, UniProt P10636) | -1.02
Cc1cc(NN=C(C#N)C#N)ccc1OCc1cccnn1 | tau protein (Homo sapiens, UniProt P10636) | -0.73
Cc1cncc(NC(=O)c2ccc(NN=C(C#N)C#N)cn2)c1 | tau protein (Homo sapiens, UniProt P10636) | -0.20
N#CC(C#N)=NNc1ccc(Oc2cnccn2)cc1 | tau protein (Homo sapiens, UniProt P10636) | 0.33
Cc1cc(NN=C(C#N)C#N)ccc1OCc1ccccc1 | tau protein (Homo sapiens, UniProt P10636) | -0.06
N#CC(C#N)=NNc1ccc(OCc2ccc(C(F)(F)F)cc2)cc1 | tau protein (Homo sapiens, UniProt P10636) | 0.76
Cc1cc(NN=C(C#N)C#N)ccc1OCc1nc2ccccc2[nH]1 | tau protein (Homo sapiens, UniProt P10636) | -0.35
Cc1ccc(NC(=O)c2ccc(NN=C(C#N)C#N)cn2)cc1 | tau protein (Homo sapiens, UniProt P10636) | 0.95
COc1cc(NN=C(C#N)C#N)ccc1OCc1cnc(C)cn1 | tau protein (Homo sapiens, UniProt P10636) | -1.31
Cc1ccccc1C(=O)Nc1ccc(NN=C(C#N)C#N)cn1 | tau protein (Homo sapiens, UniProt P10636) | -0.41
N#CC(C#N)=NNc1ccc(NC(=O)c2ccccc2C(F)(F)F)nc1 | tau protein (Homo sapiens, UniProt P10636) | -0.27
N#CC(C#N)=NNc1ccc(OCc2nc3ccccc3o2)cc1 | tau protein (Homo sapiens, UniProt P10636) | -0.52
N#CC(C#N)=NNc1ccc(OCc2cnccn2)cc1 | tau protein (Homo sapiens, UniProt P10636) | 0.36
Cc1cc(NN=C(C#N)C#N)ccc1OCc1cccnc1 | tau protein (Homo sapiens, UniProt P10636) | -0.90
N#CC(C#N)=NNc1ccc(Oc2cccnc2)c(F)c1 | tau protein (Homo sapiens, UniProt P10636) | 0.30
N#CC(C#N)=NNc1ccc(NC(=O)c2ccoc2)nc1 | tau protein (Homo sapiens, UniProt P10636) | -0.10
N#CC(C#N)=NNc1ccc(OCc2ccccc2)cc1 | tau protein (Homo sapiens, UniProt P10636) | 0.09
N#CC(C#N)=NNc1ccc(NC(=O)c2cscn2)nc1 | tau protein (Homo sapiens, UniProt P10636) | -0.70
Cc1ccc(COc2ccc(NN=C(C#N)C#N)cn2)cc1 | tau protein (Homo sapiens, UniProt P10636) | -0.62
N#CC(C#N)=NNc1ccc(Oc2ccc(C(F)(F)F)nc2)cc1 | tau protein (Homo sapiens, UniProt P10636) | 0.38
N#CC(C#N)=NNc1ccc(Oc2ncccn2)cc1 | tau protein (Homo sapiens, UniProt P10636) | 0.49
N#CC(C#N)=NNc1ccc(NC(=O)c2ccon2)nc1 | tau protein (Homo sapiens, UniProt P10636) | -0.22
N#CC(C#N)=NNc1ccc(OCc2nc3ccccc3[nH]2)cc1 | tau protein (Homo sapiens, UniProt P10636) | -1.00
COc1ccc(CCOc2ccc(NN=C(C#N)C#N)cc2)cc1 | tau protein (Homo sapiens, UniProt P10636) | 0.16
Cc1cc(NN=C(C#N)C#N)ccc1OCc1nc2ccccc2o1 | tau protein (Homo sapiens, UniProt P10636) | -1.30
N#CC(C#N)=NNc1ccc(OCCc2ccccc2)c(C(F)(F)F)c1 | tau protein (Homo sapiens, UniProt P10636) | -0.02
N#CC(C#N)=NNc1ccc(NC(=O)c2cnco2)nc1 | tau protein (Homo sapiens, UniProt P10636) | 0.18
N#CC(C#N)=NNc1ccc(OCc2ccccc2)c(C(F)(F)F)c1 | tau protein (Homo sapiens, UniProt P10636) | -1.00
Cc1cnc(C(=O)Nc2cc(C)c(NN=C(C#N)C#N)cn2)cn1 | tau protein (Homo sapiens, UniProt P10636) | -0.26

---

Target: tau protein (Homo sapiens)
Construct: fused on or other part: Split fluorescent-protein halves for BiFC are fused to tau; In the published tau-BiFC line these are Venus VN173 and VC155
Test: Tau-BiFC cell model: inhibition of tau protein aggregation
Details: Tau BiFC in cells; with Forskolin 30 μM, 48 hours

molecularString | target | IC50 (nM)
Cc1ccc(COc2ccc(NN=C(C#N)C#N)cc2)cc1 | tau protein (Homo sapiens) | 3550
COc1cc(NN=C(C#N)C#N)ccc1OCc1cc2ccccc2s1 | tau protein (Homo sapiens) | 268
N#CC(C#N)=NNc1ccc(Oc2cccnc2)cc1 | tau protein (Homo sapiens) | 1580
Cc1cc(NN=C(C#N)C#N)ccc1OCc1cscn1 | tau protein (Homo sapiens) | 54
N#CC(C#N)=NNc1ccc(OCc2ncccn2)cc1 | tau protein (Homo sapiens) | 1440
COc1cc(NN=C(C#N)C#N)ccc1OCc1ccccc1 | tau protein (Homo sapiens) | 37
COc1cc(NN=C(C#N)C#N)ccc1OCc1ncccn1 | tau protein (Homo sapiens) | 109
COc1cc(NN=C(C#N)C#N)ccc1C(=O)Nc1cnc(C)cn1 | tau protein (Homo sapiens) | 260
N#CC(C#N)=NNc1ccc(Oc2ccccc2F)cc1 | tau protein (Homo sapiens) | 1290
N#CC(C#N)=NNc1ccc(Oc2cccc(C#N)c2)cc1 | tau protein (Homo sapiens) | 3060
